protocol details: soluble on expression in E. coli; label from the status in PepcDB or PDB records
measurement name: soluble on expression in E. coli

MLPAEREQFIITFLKTNKKATIHDLALEFNVHEATIRRDLNKLEQYNQIKRTHGGVVLNDSEVWDELNFDDRETSYYDEKVAIGLKAAEFVENGDTLFIDSGSTTIHFARALTQKSNLTIITNDIHIASILKSTANQIIVTGGILYQDNYLLNGMITNETLKLFNPSKLFLATPAIDLEKGITHFNDTLASTKIQMVKQAKAVYVLTDSSKFDKVALYNVCSSDTIDVLITDQTNKNIDWQAYDNHFKHLITVHAEAHPELEHHHHHH	soluble
MGSDKIHHHHHHMSQINASASGTYAFDDQFKVNRLGYGTMQLTGEGTWGPYDDPNNAVSVIKKAVDLGINFFDTADSYGPWFADRYLAEGLKSASNRDEIFISDKVGQTRQGPGVWTPHGEPNYLRQQVEVSLMTLGIDHEDLLFLHRIDSHFSVAEQVGELKKLQDEGKIKHIGLSQVTVGQIKEAQKYAKIDAVENLYNVSDHRDDDVLDYAESQHMAFVPWFPLNTEKLTGANSPLAKIANKYKASPAQIALAWLLKRSGNVLPIPGTSSVAHLEDNVAAASIKLSDDDFKAITNLGVSNR	not soluble
QAKQTMQTLSTLNELGSKVEEVRNFFNFELPYRVKHVDQVSLKLQLVYAVRLQLESEVSDANGPDVTQLLYSTDRFLESARAFIGSDGELVSLAEQLHTSRGAENNSQQIENMYYRLGALVLESIFSDSNTNTDTYRELDLLFIESDSLSTGERSAFQRRLAQTSSVLAANAQGSYLANQLLKPDFPNQLVSMKATLEQK	not soluble
ASDRQLGPPRMCEPSPREQLMESIRKGKELKQITPPEA	soluble

====

protocol details: soluble on expression in E. coli; label from the status in PepcDB or PDB records
measurement name: soluble on expression in E. coli

For orientation, consider the following solved cases.
QGQFFREIENLKEYFNASSPDVAKGGPLFSEILKNWKDESDKKIIQSQIVSFYFKLFENLKDNQVIQRSMDIIKQDMFQKFLNGSSEKLEDFKKLIQIPVDDLQIQRKAINELIKVMNDLS	soluble
MISANKQFDIQLGDEIGKDFFTQDTVVCAFRNKEKTTDFVFTSGPIILICDGTTRRKMIKRRFKMEFDIKKVFFHSFIVTRNAEKLATENCGGPDTKHRDYLVVCGEHKLQFISLPDYHFYHYEIPFKLRNVFSCSTSLLVERFYDSSSEQTFHHHDTFHLYSLSGPFGELLPVIYKTSGYHPQWKFCWQSHRDEAGLVDAQQNYVVVYDQKEKTHRIYMARETQEQEVHAAIRYVEALRRPSDSTMFASSLAPNSAGRTTHFDPTLNSPAENVLSEVISSEIDSRSPFTPHLRSGFGHSTPNNPNAPGYPATLPTPNFEGNFFF	not soluble
MFPSPTPPLVSPTAVIEEENDDSVREFSRTLKSRLNCAMVKLSKEHEQVALIPPPPTEKIRKGSYSNKFAAKHRRCHSLDESKKFLSSLEDSSAHAAFLKAISSKHAKSNRVDNVNVSPLRWSSHRRTQSTQENSLQEVVAIDTLLKMSSSD	not soluble
MGSDKIHHHHHHMQLSSRPSSLVLDHHQNKFLTPWSDPADPHILFPIQPLEQLLVQLGWPDPQAWLIHWQKRGGISLKRPFWHPSTRTDWIWGLGLPLLTLVEGCLGKSDRSLLGITGLPGCGKTSLGCWLEAAAGELGWPIKVISLDDFYWPFPQLDRSMSGNPWRVPRALPGSHDLDLLASVLDTWQSTGHLKAPMFDKALRHGRGDRDGWHLSDPKVLVIEGWILGCLPCKFAEAGQFSDQLVPPLNKLEHDYRLVVQEALNGYVPIWDRLDTLWHLKAIDPSSTRIWKANQESLMQLNRGVCLDQESFEGFVRMILASIPLTCLDGIEADVVATLTPARQLMWVGQRGYQDSSSSDSCIG	not soluble
MSVLNPCMTCGACCAYFRVSFYWAEGDDASGRVPASLTEPVTPFLRCMAGTNQKQPHCKALIGTPGENVSCAIYENRPSTCREFSISGEGGEVNEACNRARARYGLPPLYKDMLFHTTADAATVELSRVQLPANLEHHHHHH	not soluble
MMICGVFCMYKERKRMTKKELALEYHKKGYNCTQAVACAFCGEFGVSEEEMYKIAEGFGLGMGMMDTCGALTGLFMLIGMKNSGGVEQAGKTKADTYKKTREYAAKFKEINGSVYCKELKGVETGKILAPCDKCILDAVELAEQFLKEN	not soluble
VALLGLILPYFVSRWWARTQSYTKKGIHNVTASNFVSNLVNYKPSEIVTTDLILHWLSFAHEFKQFFPDLQPTDFEKLLQDHINRRDSGKLNNAKFRIVAKCHSLLHGLLDIACGFRNLDIALGAINTFKCIVQAVPLTPNCQILQLPNVDKEHFITKTGDIHTLGKLFTLEDAKIGEVLGIKDQAKLNETLRVASHIPNLKIIKADFLVPGENQVTPSSTPYISLKVLVRSAKQPLIPTSLIPEENLTEPQDFESQRDPFAMMSKQPLVPYSFAPFFPTKRRGSWCCLVSSQKDGKILQTPIII	not soluble
MYELTEDFKLRKITKYELDGIDEREDLLVIPPSSKAGPCGNACLFCYLLQNPPEMIYKVPRHDTLNDPDLENRIRYARKHYDLWIRVTDTSGNIKFDENRIKSLYDAGLDEIQISVHTTKKDVRARLMRNRQAGKLIDLLPLVAKHFRTIADIILTPGFNVEDIGEIIEDLDSMGVHEVRLFPVGVTRYNKFGVRPLTREELSYVKGIALEKDKELAIKVVIPPIFLALLGEFTTGLEPFDIEPDFPTYIFTGELAYQEMKRLFPRVNVIMVKNEFFGGNIGSAGLLTGRDILREVEKLPEVDLGLIILPELMFYGDMTLDGWRRQELFSKILIEKGYIVETALEPTEIPRVIEKVTL	not soluble

Provide the reported soluble on expression in E. coli of each entry below, same order.
1. QNFLNDQFVIDSIVSAINPQKGQAMVEIGPGLAALTEPVGERLDQLTVIELDRDLAARLQTHPFLGPKLTIYQQDAMTFNFGELAEKMGQPLRVFGNLPYNISTPLMFHLFSYTDAIADMHFMLQKEVVNRLVAGPNSKAYGRLSVMAQYYCNVIPVLEVPPSAFTPPPKVDSAVVRLVPHATMPHPVKDVRVLSRITTEAFNQRRKTIRNSLGNLFSVEVLTGMGIDPAMRAENISVAQYCQMANYLAENA
2. MSSETRRKILEAARKAFSKYGYDGVSMEEIAREAGVKKALIYYYFPSKDKLFEEVWREALEELESHLFAVTEETNSYFAKIKKFLKSYVDFVLNKTVLNEIIEKEKSTVRFEEEKWSKLRERYESFIKRVEELIEEGKKQNYVYKDLDSRAAAELIVNSFGDVPKDKRLLQNIQEMILRGLLNVKTEEGR

a:
1: soluble; 2: not soluble

Give measured soluble on expression in E. coli for every item shown.
1. MDYSKIIKEVGRGKNHARDLDQPTAYALYKAMLAGQVPALELGGILIAFRIKGESEQEILGFYQAMQEQVMSLRAPVDRPLPVVIPSYNGARKQANLTPLLALLLSRLGLPVVVHGVTEDSSRVTSAEIFQQLNIPWSLSVQEAQQRLDNGLPVFIPVSALSMQLDQQLQQRWRMGVRNSSHTLAKLATPFTHDKALRVASVSHPEYMQKVGGFFQAISAPGLLLQGTEGEVYANPLRCPPIHYINDGEQTILLDRSSESVVPELPLSKDAVITARWIEGCLAGEQPIPDSILKQLACCLVAAGQADSVELALQQIKIV
2. PRLEFEKPVIELQTKIAELKKFTQDSDMDLSAEIERLEDRLAKLQDDIYKNLKPWDRVQIARLADRPTTLDYIEHLFTDFFECHGDRAYGDDEAIVGGIAKFHGLPVTVIGHQRGKDTKENLVRNFGMPHPEGYRKALRLMKQADKFNR

a:
1: not soluble; 2: not soluble

====

protocol details: soluble on expression in E. coli; label from the status in PepcDB or PDB records
measurement name: soluble on expression in E. coli

ESYWRSRMIDAVTSDEDKVAPVYKLEEICDLLRSSHVSIVKEFSEFILKRLDNKSPIVKQKALRLIKYAVGKSGSEFRREMQRNSVAVRNLFHYKGHPDPLKGDALNKAVRETAHETISAIFSEENG	soluble
MSLQKVKLPLTLDPVRTAQKRLDYQGIYTPDQVERVAESVVSVDSDVECSMSFAIDNQRLAVLNGDAKVTVTLECQRCGKPFTHQVYTTYCFSPVRSDEQAEALPEAYEPIEVNEFGEIDLLAMVEDEIILALPVVPVHDSEHCEVSEADMVFGELPEEAQKPNPFAVLASLKRKEGGSHHHHHH	soluble
MNGGKETIDDMSLVVGMYGNYEVTKTGNLVGILEVSGINLDLLNETEQQDVFEDYGAFLMSTLGEGVDDTLQFLEPTIPVNMTTYLNGLKRRYLALQKDHPEQQFKIQLIASYLDHFTKVQESKNMTTKQHLLIVKVPIKDKSAESLNLAVAHLDEKIEQVKRDIENALTDFDVTAKILTSQEVQEILKNLINFNGLEHHHHHH	soluble
